Value source: ChEMBL document CHEMBL3421626

Each entry below carries its reported IC50.
- Test system: Aspergillus niger
- experimental-protocol: Antimicrobial activity against Aspergillus niger IFM62678 assessed as reduction in […] growth incubated for 48 hrs by microbroth dilution method
- Format: functional
- settings: IFM62678, 48 h
Numbered stars: 1 amine (or outer) side, 2 acyl side, 3 side chain; on linkers, the order of the positions; unused ones are H or OH. Bridge positions count the residues as written; N and C are the ends. Square brackets hold non-standard residues; d marks the D form. Peptide text beside a SMILES is read from it. * marks the point of attachment. hTyr(3S-OH,4S-OH,3'-OSO3H) = N[C@H](C(=O)O)[C@H](O)[C@@H](O)c1ccc(O)c(OS(=O)(=O)O)c1; Orn(4R-OH,5R-OH) = O=C([C@H](C[C@@H](O)[C@@H](O)N[*:3])N[*:1])[*:2]; Pro(3S-OH,4S-Me) = C[C@H]1CN[C@H](C(=O)O)[C@H]1O; X1 = CCCCCOc1ccc(-c2cc(-c3ccc(C(=O)*)cc3)no2)cc1; Gln(3R-OH) = NC(=O)C[C@@H](O)[C@H](N)C(=O)O; Hyp = O=C(O)[C@@H]1C[C@@H](O)CN1

molecule	system-name	prefix-operator	IC50 (µg/mL)
CC(C)=CC[C@@H]1C[C@@]2(CC=C(C)C)C(=O)C3(CC=C(C)C)C[C@]1(C)[C@]2(O)/C(=C(/O)c1ccccc1)C3=O	Aspergillus niger	=	16
CCCCCOc1ccc(-c2cc(-c3ccc(C(=O)N[C@H]4C[C@@H](O)[C@@H](O)NC(=O)[C@@H]5[C@@H](O)[C@@H](C)CN5C(=O)[C@H]([C@H](O)CC(N)=O)NC(=O)[C@H]([C@H](O)[C@@H](O)c5ccc(O)c(OS(=O)(=O)O)c5)NC(=O)[C@@H]5C[C@@H](O)CN5C(=O)[C@H]([C@@H](C)O)NC4=O)cc3)no2)cc1 [MICAFUNGIN] (X1-[Orn(4R-OH,5R-OH)]T[Hyp][hTyr(3S-OH,4S-OH,3'-OSO3H)][Gln(3R-OH)][Pro(3S-OH,4S-Me)]; lactam 1-C)	Aspergillus niger	<	0.1
CN[C@H]1C[C@@H](N)[C@H](O)[C@@H](O[C@@H]2O[C@H](CO)[C@H](O)[C@H]3O[C@@]4(O[C@H]23)O[C@H]([C@H](N)CO)[C@H](O)[C@H](O)[C@H]4O)[C@@H]1O	Aspergillus niger	=	1
C[C@@H]1[C@H](O)[C@@H](C)/C=C/C=C/C=C/C=C/C=C/C=C/C=C/[C@H](O[C@@H]2O[C@H](C)[C@@H](O)[C@H](N)[C@@H]2O)C[C@@H]2O[C@](O)(C[C@@H](O)C[C@@H](O)[C@H](O)CC[C@@H](O)C[C@@H](O)CC(=O)O[C@H]1C)C[C@H](O)[C@H]2C(=O)O [AMPHOTERICIN B]	Aspergillus niger	=	1.8
